# assay: growth suppression of yeast trafficking mutant, preliminary HTS, modulators of trafficking downstream of Golgi apparatus project, 1536-format plate, OD 615 nm (AID 637); note: test concentration not given here
# cond: yeast transport mutant growth, absorbance 615 nm, 18 h; active compounds read high
In this section we review reported inhibition values for a set of molecules.
Give your result in % as a bare value.

The reported value for Cc1ccnc(-n2c(-c3ccco3)nc3ccccc3c2=O)c1 in terms of inhibition is 1.15

The reported value for COc1ccc(OC)c(N2C(=O)NC(=O)C(CCc3ccncc3)(CCc3ccncc3)C2=O)c1 in terms of inhibition is 11.3

The reported value for CC#CP(=O)(OCC)C(O)(c1ccccc1)C(F)(F)F (stereo unspecified) in terms of inhibition is 2.13

The reported value for O=C(CCCOc1ccc(Cl)cc1Cl)N1CCC2(CC1)OCCO2 in terms of inhibition is -2

New cases:
The reported value for Oc1ccc(C2NCc3ccccc3-n3cccc32)cc1Cl (stereo unspecified) in terms of inhibition is -3.17

The reported value for Cc1ccc(CS(=O)(=O)CCC(=O)N2CCC3(CC2)OCCO3)cc1 in terms of inhibition is -0.82

The reported value for CCC(=NCC1CCCO1)c1c(O)n(Cc2ccccc2)c(=O)[nH]c1=O (stereo unspecified) in terms of inhibition is 1.48

The reported value for CCC(=NCCCN1CCOCC1)c1c(O)n(Cc2ccccc2)c(=O)[nH]c1=O in terms of inhibition is -5.56

The reported value for CCOC(=O)C1SC2(C(F)F)CC1(O)c1c(c(OC)c3occc3c1OC)O2 (stereo unspecified) in terms of inhibition is 0.73

The reported value for COc1ccccc1OCCCn1cc(C(=O)c2ccco2)c2ccccc21 in terms of inhibition is -5.33

The reported value for COc1ccc(CC2C(=O)NC(=O)NC2=O)c(OC)c1 in terms of inhibition is -1.75
